Each record here notes measured protein stability index.
B1: ANKRD17 (parent)
chain: EVLRRLTSSVSCALDEAAAALTRM

# Variants of: B1
# assay_details: protein stability index of a GFP-peptide fusion (GPS, HEK-293T) (PSI 1-6); higher = more stable;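 further: lentivirally expressed fusions sorted by FACS into six bins by GFP to DsRed ratio, PSI derived from sequencing read proportions per bin multiplied by bin number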
# condition_label: c terminus: a fixed tail appended
Form field (numeric): enter value without unit.

{"variant_annotation": "A19E", "observed_property": "protein stability index", "data_value": 2.12}
{"variant_annotation": "S9C", "observed_property": "protein stability index", "data_value": 1.87}
{"variant_annotation": "V10N", "observed_property": "protein stability index", "data_value": 1.94}

[in] Return value of protein stability index for input E16T , no commentary.
[out] 1.88

[in] Return value of protein stability index for input R4E , no commentary.
[out] 1.42

Data origin, for the record: the supplement of paper PMC10567573
